- ASSAY_PROCEDURE: soluble on expression in E. coli; label from the status in PepcDB or PDB records

SEQUENCE_CONTENT: MTISEVSKKYELSADTLRYYERIGLIPPVNRNKSGIRSFTEEDCEWVNFIKCMRGAGLSIETLIEYVAMFQQGSSTIKARKELLIEQRNQLAKRIEEMQKTLERLNFKIDRYEEGIIEKEKVLKSSRNKKMEAVSYE
soluble on expression in E. coli: not soluble
//
SEQUENCE_CONTENT: IGADVDLATLSGLDGAALHFEQTIFILDNGTGQPTGGEWQGAVGSYFGGAPLHNDIASNQLSLLTYKQKWLDGQLDLHVGRTNGRRYFYIYNCETGVTCNDPILDASSGMLPPPFGAWGGYLKYQVNPRFYVHAGAFESNPVDYLKKRKGLDFSTDDASGTSFLVGIGSKPGDNTTQYELNA
soluble on expression in E. coli: not soluble
//
SEQUENCE_CONTENT: MKVYYECAPCFLRQAREAIDLATDDEELKLRVMENILELLSERFRRGQVSNELGTRMHRLIKDMTGSEDPYLDEKRRCNEIALRFLPTVRDYLECHSDLESHVKVAITGNIIDFGALGLDFDHDRGIQESLRAPLTINHVPLLEDRLREASEVLYLLDNTGEILFDRPLIEKLAGYDVSVKVAVKGEPILNDACMEDALEAGLDEVAEIVTTGTDSVGIVYSDLSDEFRDMLDGTELVIAKGMGNYEGLTEISDGSRDIFCLLNAKCSAIARDLGVARGDNVAVKI
soluble on expression in E. coli: not soluble
//
SEQUENCE_CONTENT: MGSDKIHHHHHHILVKNKIDNEFNWISMKEEQKLNVPIENQMPDLPNGCEVTSLSMLMNYYGIRVTKNELAQNIQHVSSFTNNGKYRGNPNQGFVGYMSIENAGWCVYNGPLYNVARKYTNRIQNATGSDFLSILKLVSDGHPVLIITTTTFNRVNNMQTWETNTGKVNVTPSSHACVITGYDKKKRIVYLNNPYGIKNQAVNWNNLENSYNQQGKQALYIK
soluble on expression in E. coli: not soluble
//
SEQUENCE_CONTENT: MGSDKIHHHHHHMNGKLQSSDVKNETPYNIPLLINENVISSGISLISLWHTYADEHYRVIWPRDKKKPLIANSWVAVYTVQGCGKILLKNGEQITLHSNCIIFLKPMDIHSYHCEGLVWEQYWMEFTPTSMMDIPVGQQSVIYNGEIYNQELTEVAELITSPEAIKNNLAVAFLTKIIYQWICLMSADGKKDPQRRQIEKLIATLHASLQQRWSVADMAATIPCSEAWLRRLFLRYTGKTPKEYYLDARLDLALSLLKQQGNSVGEVADTLNFFDSFHFSKAFKHKFGYAPSAVLKNTDQHPTDASPHN
soluble on expression in E. coli: not soluble
//
SEQUENCE_CONTENT: MSLKITAVKCILLSCPYAIPGDLEREFCFADGHRTISVIKVETDEGIHGLGETYIGVFAPEATQAIVRQLEVDLVGRDPMDTAGIANILKLATYYWGRFGMSASIAGGIEMALWDLKGKALGVPVHQLLGGKVHDHIPAYASGGNNKPFPELKKELLGYKKLGFGAVKIRINYLEPHEIIEKVAYSREVLGDKTGLGVDACQGVNPKAWNYKEAIGIVRSLEPYKLLFVEEPCEVTDYKGFAKIRAETDCVIAGGETVSSLVEAENYLEAGALDLFQPDAAIIGGISAFRRVAQMCERKFIKLAVHTWAGGVGIMGNYHAAFASPNCTLLELPNNPFPLREEFLVQPLTLVNGGIAAPTAPGLGVEGHHHHHH
soluble on expression in E. coli: soluble
//
SEQUENCE_CONTENT: MSLTLKTTEDLFQQSLHEYTITHAIEDKNVLRFHVDYYKPDGKSTPKPGETLAKRAVVDAILSKHDAATGGRRFNAILATASINDAIGYFGLFKTAQAEKQRVEPGYVPLNIAAVFSPPSDVSADVRQLQEDLPQEQEDNKKDSDAKKAALKAIIGDYNTRFGTNHRIEEFDAYYQDVQQRIKDQQFPNADLPDKGREKLDIVIVVDMLLTGFDSKYLNTLYVDKNLKYHGLIQAFSRTNRVLNDTKPYGNILDFRGQQKEVDAAIALFSGAKADKAREIWLVDTAPVVIDKLKEARGSLDSFLASQGLGGKPEDIANLKGTAAKVAFIKHFKDVQKLQTQLDQYTDLTAEQQAQVEAILPKDELRSFRGQYLQKAEELRADQKKAGEGHHHHHH
soluble on expression in E. coli: soluble
//
SEQUENCE_CONTENT: MSIYSKILVVADINHDEQPALARAMQLAQKSTSVSHITFFLSIYDFSYDMTSMLSLEERDAMRKGVIHQREQWMRSIAEPYLDKSVQFDIKVVWHNRPYEAIIGEIFAGEHDILIKATRKHDMLESVIFTPTDWHLMRKCPTPVLLVKNADWPENANIIASVHVGSELDTHIDLNDRMVEQLLNLSKRLGASPYLVNAYPVTPANITIELPEFDPTTYTDAVRGHHLTAMKALRQKHGLSEEQTLVQQGLPEDVIPEAAKQLNAAMVILGTTGRTGLSAVFIGNTAEHVIDKINCDVLALKPNGYVSPLDPQTAI
soluble on expression in E. coli: not soluble
//
SEQUENCE_CONTENT: MVRSFIYEPFQIPSGSMMPTLLIGDFILVEKFAYGIKDPIYQKTLIETGHPKRGDIVVFKYPEDPKLDYIKRAVGLPGDKVTYDPVSKELTIQPGCSSGQACENALPVTYSNVEPSDFVQTFSRRNGGEATSGFFEVPKNETKENGIRLSERKETLGDVTHRILTVPIAQDQVGMYYQQPGQQLATWIVPPGQYFMMGDNRDNSADSRYWGFVPEANLVGRATAIWMSFDKQEGEWPTGLRLSRIGGIH
soluble on expression in E. coli: soluble
//
SEQUENCE_CONTENT: MSLGDAADPREMRKTFIVPAIKPFDHYDFSRAKIACNLAWLVAKAFGTENVPEELQEPFYTDQYDQEHIKPPVVNLLLSAELYCRAGSLILKSDAAKPLLGHDAVIQALAQKGLYVTDQEKLVTERDLHKKPIQMSAHLAMIDTLMMAYTVEMVSIEKVIACAQQYSAFFQATDLPYDIEDAVMYWINKVNEHLKDIMEQEQKLKEHHTVEAPGGQKEGHHHHHH
soluble on expression in E. coli: soluble
//
SEQUENCE_CONTENT: DSDLYAELRCLCIKTTSGIHPKNIQSLEVIGKGTHCNQVEVIATLKDGRKICLDPDAPRIKKIVQKKLAGDESAD
soluble on expression in E. coli: soluble

====

- ASSAY_PROCEDURE: soluble on expression in E. coli; label from the status in PepcDB or PDB records
QUANTITY: soluble on expression in E. coli

SEQUENCE_CONTENT: MSLTARVIALDLDGTLLTPHKTLLPSSLDALSRAKEAGFQLIIVTGRHHVAIHPFYQALALETPAICCNGTYLYDYQAKTVLDADPMPVDKALQLIDLLDEHQIHGLMYVDDAMLYEHPTGHVVRTSRWAQTLPPEQRPTFAQVSSLAQAARDVNAVWKFALTDEDIPKLQRFGQHVEQALGLECEWSWHDQVDIARKGNSKGKRLTQWIEAQGGSMKNVIAFGDNYNDISMLEAAGTGVAMGNADEAVKARADVVIGDNTTDSIAKFIYTHLLEGHHHHHH
QUANTITY: soluble on expression in E. coli
READOUT_VALUE: soluble
--
SEQUENCE_CONTENT: MTMNIAVVSGRIAPELTLPGLNFSRAYAPSTDFRSARLGLLTGQYPQRQPVTRFASLIGTVAEDFSPADVHIIERAEITPDLLDQAHDSGAATFFVGHPTIDDHRVRMSLLWPGVTDTNLPHDTIDGVVTCNELVSTLDIAPTLAAIAGYDVRPNAQLSFDGMNLTPVIRYGATGHGGLFFDDGTVITPTEVRRQANDPEWTMWHQFMNMGPLQ
QUANTITY: soluble on expression in E. coli
READOUT_VALUE: not soluble
--
SEQUENCE_CONTENT: MALMSDKFLSIVIPAYNSEKYIEKNLMFLSRQTSNNFEVIVVDDGSTDNTCEVSEACLENFKINHRVIRCEENRGQSVARNIGINYSRGKYILFLDSDDFAENNLVQILERNMFNEPDIVFFDYKRIKEGDSVNVNIAQNFEFGKIKSGEEVFNAYKDNKIRLWTGSLVYNKEFLNKNKLRFLEGAHGAEDLNFIFKALLSSKKVRGIEDSLVFYCQRGDSLTNNPDIYKNITVVESMEDVAKFIDENKLDKKLKEAIEKEFTCEHIMYQILGYLNSETKKDTLSVLKNKNVKKYLKKATIKTNRYGRSMYTYMKMAAYFPNLFIKTYLKNTGKLEHHHHHH
QUANTITY: soluble on expression in E. coli
READOUT_VALUE: soluble
--
SEQUENCE_CONTENT: MILAILQARMSSTRLPGKVLMPLQRQPMIVRQIERVARSKRIDKLVVATSDRPEDDAIEAAVRREGIAVFRGSLDNVQQRFIGALDAHPADHVVRLTADCPLADPTLIDATIDLCLSKGADYVSNTPEGHAHPKGTDVEVMTAAALRRAAAEATTKEAFEHVTWDLWNQPQRWTCAWLPCFPDQGAVRWTVDRPDDYAFVAAVYDALYPANRAFTSDDIRAFVAGRPDLQDYGGDRRALEHHHHHH
QUANTITY: soluble on expression in E. coli
READOUT_VALUE: not soluble
--
SEQUENCE_CONTENT: MNFDWQMPRDPFADDPNDPASFIEDDEQAPPLTEAERQHIREDLALVKRFKEALEPRGINGIFFLCEDCDEDHYYDWDIMAANMRATLAGELAPVHEPSVNPNPHAYVPWDYCLGYLDGLEAPRMRFF
QUANTITY: soluble on expression in E. coli
READOUT_VALUE: not soluble
--
SEQUENCE_CONTENT: GMTRRIAICAPSTPFTREDSARVIALAAAEFPDLSLSFHEQCFASEGHFAGSDALRLSAFLECANDDAFEAVWFVRGGYGANRIAEDALARLGRAASAKQYLGYSDAGTLLAALYAHRIGRSVHAPMPVDIRRPEGESAVRRTLGWLAGAREGLEPTLGAGAPAVAFNLMTLAMLCGTRLLPDLSGHVVMIEEVAEHHYAVDRLLFHVTSCLADAGIAGLRLGRVSDVPENDRPFGCSVEEMARHWCHRAGIAFLGTADIGHDVDNRIVPFGLA
QUANTITY: soluble on expression in E. coli
READOUT_VALUE: soluble
--
SEQUENCE_CONTENT: RPLKRDKPAARTLKDNWLRTEREERLWQALRVWRMKQAEAEGIPAYMIFGDKTLRDLVEKMPQDLNGLHDIYGLGEAKIDRFGHGILEVCRNAAGFSRDAVIRPQTEREQQLRQKLEAWRYEQARAENCALHAVLSDESLADMLADTPETETDLEGVYGLGSVRAAKYGRDILAVCRPFSDGIDETAKRKRRLMRALIQWCGETAKHEQSEPYRILSKAALRAIAAKQPEGLAELAAVYGVGEEKAARYGAAVLAVLERNAV
QUANTITY: soluble on expression in E. coli
READOUT_VALUE: not soluble
--
SEQUENCE_CONTENT: SIHSMDKPIESKEGNVSVGKFKLSDSSINNPEEIISVPSSTTEIEKVEMKPGRGEGLNPELLPASVSELLIPSPFQPQIPDGNNSSVEFHPSKVVLIGTAHVSEKSVNEVRSAIRNLKPDIVAVELCRARYDSLKGNVPETNQVPIKEILTEGKVYYYLVHWLLAYVQKKIGEDMGVKPGSEMISAIEEAEASGAKIALIDRDIQVTLQRFWGRMKFTEKIKMLGSLIGGLIGIGKGAEIDIDQITQQDVVTALVSELREFAPTAAETLIDERDAYLAGSILRTAAGGNKTIVAVIGAGHKPGVINYLENPKSLPPLNSLMQIPKKR
QUANTITY: soluble on expression in E. coli
READOUT_VALUE: not soluble
--
SEQUENCE_CONTENT: MKYDLIIIGSGSVGAAAGYYATRAGLKVLMTDAHMPPHQQGSHHGDTRLIRHAYGEGEKYVPLVLRAQTLWDELSTHNEEPIFVRSGVVNLGPADSAFLANVARSAQQWQLNVERLDATALMTRWPEIRVPDNYIGLFEADSGFLRSELAITTWLRLAREAGCAQLFNSPVSHIHHDDNGVTIETSEGCYHASKALISAGTWVKALVPELPVQPVRKVFAWFKADGRYSTKNRFPAFTGEMPNGDQYYGFPAENDELKIGKHNGGQLIQAPEERKPFAAVASDGAEAFPFLRNVLPGIGGCLHGAACTYDNSPDEDFIIDTLPGHENTLVITGLSGHGFKFAPVLGEIAADFALGKTPSFDLTPFRLSRFSQ
QUANTITY: soluble on expression in E. coli
READOUT_VALUE: not soluble
--
SEQUENCE_CONTENT: MMNKLPHETRVVIGMSGGVDSSVAALLLKEQGYDVIGIFMKNWDDTDENGVCTATEDYNDVIEVCNQIGIPYYAVNFEKQYWDKVFTYFLDEYRAGRTPNPDVMCNKEIKFKAFLEHAIALGADYVATGHYARVAYMDGEYKMLRGVDDNKDQTYFLNQLSQEQLSKTMFPLGELKKPQIREMAKEAGLATAAKKDSTGICFIGERNFKDFLSNYLPAQPGVMQTLSGEVKGKHDGLMYYTIGQRHGLGIGGNGDPWFAVGKNLKENILYVDQGFHNELLYGDEVIATNVGWVSNKEKETEFKCTAKFRYRQEDNKVTVQIVDENTVRILCDEPIRAITPGQAVVFYDGDECLGGATIDEVYRSGKKLDYLG
QUANTITY: soluble on expression in E. coli
READOUT_VALUE: not soluble
